The origin of these recorded values is patent US20240384350A1.

Target: EGFR S811F (Homo sapiens, UniProt P00533, S811F)
Construct: expressed in transfected cells; host or cells: Ba/F3 cells, retroviral pBabe-Puro vector (vector made by GeneScript from EGFR WT)
Test: Ba/F3 drug screening, Cell Titer Glo, IC50 Mut/WT
Assay type: cell-based
Conditions: Classical-Like, 72 hours
Below, each of the compounds is paired with its reported ratio of IC50 for cells with mutant EGFR to IC50 for cells with wildtype EGFR (Mut/WT) value.
measure-name: ratio of IC50 for cells with mutant EGFR to IC50 for cells with wildtype EGFR (Mut/WT)

> print(dat)
                             chemical.smiles    number
 1  COc1cc2ncnc(Nc3cccc(Cl)c3F)c2cc1OC(=O)N1CCN(C)C[C@H]1C  0.006423
 2  Cc1cc(C(=O)Nc2nc3cccc(Cl)c3n2[C@@H]2CCCCN(C(=O)/C=C/CN(C)C)C2)ccn1   0.00115
 3  COc1cc2ncnc(Nc3ccc(F)c(Cl)c3)c2cc1NC(=O)/C=C/CN1CCCCC1    0.1673
 4  C=CC(=O)Nc1cc(Nc2nccc(-n3cc(CN(C)C)c(-c4ccccc4)n3)n2)c(OC)cc1N1CCOCC1   0.01158
 5  C=CC(=O)Nc1cc(Nc2nccc(-c3c[nH]c4ccccc34)n2)c(OC)cc1N(C)CCN(C)C  0.002871
 6  CNC(=O)CN1CCC(Oc2cc3c(Nc4cccc(Cl)c4F)ncnc3cc2OC)CC1  0.006549
 7  C=CC(=O)N[C@H]1C=C(C)c2c(-c3cnc4ccccc4c3)c3c(N)ncnc3n2C1  0.009026
 8  C=CC(=O)Nc1cc(Nc2ncc(C(=O)OC(C)C)c(-c3cn(C)c4ccccc34)n2)c(OC)cc1N(C)CCN(C)C  0.003195
 9  CN(C)C/C=C/C(=O)Nc1cc2c(Nc3ccc(Cl)c(Br)c3)ncnc2cn1    0.1118
10  C=CC(=O)N1CC[C@@H](Oc2nc(Nc3ccc(N4CCC(N5CCN(C)CC5)CC4)cc3)c(C(N)=O)nc2CC)C1    0.0351
11  C=CC(=O)Nc1cccc(Oc2nc(Nc3ccc(N4CCN(C)CC4)cc3)nc3ccsc23)c1    0.0307

###

Below, each of the molecules is paired with its reported ratio of IC50 for cells with mutant EGFR to IC50 for cells with wildtype EGFR (Mut/WT) value.
Target: EGFR G719A T790M (Homo sapiens, UniProt P00533, G719A/T790M)
Construct: expressed in transfected cells; host or cells: Ba/F3
Assay: Ba/F3 drug screening, Cell Titer Glo, IC50 Mut/WT
Format: cell-based
Settings: T790M-like-3S, 72 hours
measure-name: ratio of IC50 for cells with mutant EGFR to IC50 for cells with wildtype EGFR (Mut/WT)

> print(dat)
                                   molecule   number
1  Cc1cc(C(=O)Nc2nc3cccc(Cl)c3n2[C@@H]2CCCCN(C(=O)/C=C/CN(C)C)C2)ccn1 [Nazartinib]  0.02653
2  C=CC(=O)Nc1cc(Nc2nccc(-c3c[nH]c4ccccc34)n2)c(OC)cc1N(C)CCN(C)C [AZ5104]   0.1667
3  CNC(=O)CN1CCC(Oc2cc3c(Nc4cccc(Cl)c4F)ncnc3cc2OC)CC1 [Sapatinib]    54.78
4  C=CC(=O)N[C@H]1C=C(C)c2c(-c3cnc4ccccc4c3)c3c(N)ncnc3n2C1 [TAS 6417]  0.01296
